Taken from paper PMC4336329.

Below: a set of entries, each annotated with reported hERG current change (%, negative = inhibition) at 10uM.
target: human ether-à-go-go-related gene (hERG) potassium channel (human); test: primary screen, population patch clamp on CHO cells stably expressing hERG; higher = less effect of the substance
Out of some 310,000 compounds screened, about 14,000 (4.5%) showed an effect of 50% or more. The effect is printed as a negative number. What follows is part of a selection rich in strong results, with near analogues and random picks from the rest.
State the answer as a number, implicitly in %.

These solved cases illustrate the format of a correct answer.
compound	endpoint-value
COc1ccc(N2CCN(C(=O)CCNS(=O)(=O)c3ccc(Br)s3)CC2)cc1	-50.6
O=C1C2CCCCN2C(=O)N1CCCN1CCN(c2ccc(F)cc2)CC1 (centres unmarked)	-34.8
Cc1ccc(N2CCN(CCCN3C(=O)C4CCCN4C3=O)CC2)cc1.Cl (centres unmarked)	-7.45
COc1ccc(N2CCN(C(=O)CCc3ccc(S(=O)(=O)NC(C)C)cc3)CC2)cc1	-7.82

--- query ---
Prompt: Param readout = hERG current change (%, negative = inhibition) at 10uM; param system = human ether-à-go-go-related gene (hERG) potassium channel (human); param query = O=C1C2CCCN2C(=O)N1CCN1CCN(CCO)CC1 (centres unmarked) ; response: value;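 note: peak tail current of the secondary pulse compared with the same well before compound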
Completion: -5.52

* * *

Below: a set of entries, each annotated with reported hERG current change (%, negative = inhibition) at 10uM.
target: human ether-à-go-go-related gene (hERG) potassium channel (human, UniProt Q12809); experiment: primary screen, population patch clamp on CHO cells stably expressing hERG; higher = less effect of the substance;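 note: peak tail current of the secondary pulse compared with the same well before compound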
Sequence (Q12809 whole entry, looked up): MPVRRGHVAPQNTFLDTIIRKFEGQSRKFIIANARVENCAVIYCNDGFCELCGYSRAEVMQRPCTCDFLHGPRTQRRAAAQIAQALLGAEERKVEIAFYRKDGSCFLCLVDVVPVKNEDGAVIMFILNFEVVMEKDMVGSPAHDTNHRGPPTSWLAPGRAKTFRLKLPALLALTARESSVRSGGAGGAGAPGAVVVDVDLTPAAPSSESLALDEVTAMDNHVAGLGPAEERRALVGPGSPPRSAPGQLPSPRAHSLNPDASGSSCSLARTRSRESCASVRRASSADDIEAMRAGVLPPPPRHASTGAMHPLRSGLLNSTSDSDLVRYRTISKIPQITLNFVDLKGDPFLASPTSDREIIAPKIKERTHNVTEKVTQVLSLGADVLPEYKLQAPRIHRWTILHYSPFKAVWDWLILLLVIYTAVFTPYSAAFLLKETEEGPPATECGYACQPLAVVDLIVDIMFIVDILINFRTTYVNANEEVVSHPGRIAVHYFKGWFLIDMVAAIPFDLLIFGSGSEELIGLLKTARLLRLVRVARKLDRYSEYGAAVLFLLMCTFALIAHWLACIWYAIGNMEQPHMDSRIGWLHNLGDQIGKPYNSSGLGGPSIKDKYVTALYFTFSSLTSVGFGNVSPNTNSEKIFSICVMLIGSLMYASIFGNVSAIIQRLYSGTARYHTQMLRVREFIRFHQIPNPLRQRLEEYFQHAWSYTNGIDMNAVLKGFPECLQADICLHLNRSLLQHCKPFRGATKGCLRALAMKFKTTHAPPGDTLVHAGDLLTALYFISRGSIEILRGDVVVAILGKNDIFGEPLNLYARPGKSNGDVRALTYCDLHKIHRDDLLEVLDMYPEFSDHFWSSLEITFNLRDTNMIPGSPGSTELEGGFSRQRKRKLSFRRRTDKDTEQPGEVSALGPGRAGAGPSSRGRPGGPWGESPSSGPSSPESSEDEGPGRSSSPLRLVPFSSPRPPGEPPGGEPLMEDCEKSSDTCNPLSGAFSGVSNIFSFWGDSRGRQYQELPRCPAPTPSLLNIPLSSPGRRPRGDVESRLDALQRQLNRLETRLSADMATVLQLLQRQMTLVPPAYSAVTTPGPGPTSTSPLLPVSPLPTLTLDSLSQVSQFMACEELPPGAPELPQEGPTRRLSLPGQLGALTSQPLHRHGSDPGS
The campaign covered roughly 310,000 compounds. About 14,000 (4.5%) showed an effect of 50% or more. The effect is printed as a negative number. Shown is part of a subset that was picked to be rich in strong results.
State the answer as a number, implicitly in %.

compound	endpoint-value
Cc1ccc(/C=C(\C#N)C(=O)NCc2ccco2)o1	3.84
Cc1onc(-c2c(Cl)cccc2Cl)c1C(=O)O/N=C(\C#N)c1c(Cl)cccc1Cl	9.4
COc1ccc(C2C(C#N)=C(N)N(c3sc4c(c3C#N)CCCC4)C3=C2C(=O)CC(C)(C)C3)cc1 (centres unmarked)	-2.99
CCN(CC)CCn1c(OC)cc(=O)[nH]c1=O	17.6

--- query ---
Prompt: Param readout = hERG current change (%, negative = inhibition) at 10uM; param system = human ether-à-go-go-related gene (hERG) potassium channel (human, UniProt Q12809); param query = COc1ccc(-c2cc(C(=O)NCc3cccs3)no2)cc1 ; response: value;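 note: peak tail current of the secondary pulse compared with the same well before compound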
Completion: 7.1

* * *

target: human ether-à-go-go-related gene (hERG) potassium channel (human); assay: primary screen, population patch clamp on CHO cells stably expressing hERG; higher = less effect of the substance;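 note: peak tail current of the secondary pulse compared with the same well before compound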
The campaign covered roughly 310,000 compounds. About 14,000 (4.5%) showed an effect of 50% or more. Effects have a minus sign here. This is one part of a sample in which strong results are shown more often than they occur.
property-name: hERG current change (%, negative = inhibition) at 10uM (%)
State the answer as a number, implicitly in %.

These solved cases illustrate the format of a correct answer.
compound	endpoint-value
OC(CN1CCN(Cc2ccccc2)CC1)Cn1c2ccccc2c2ccccc21 (stereo not drawn)	-67.7
O=C(N/N=C\c1cn(-c2ccccc2)nc1-c1ccccc1)c1ccc2c(c1)OCO2	11.3
N#CC1=C(N)Oc2cc(O)ccc2C1c1cccnc1 (stereo not drawn)	27.4
O=P1(Nn2cnnc2)C=C(c2ccccc2)OC(c2ccccc2)=C1	-20.8

Prompt: Look at this compound and give its reported hERG current change (%, negative = inhibition) at 10uM. CCN(Cc1nc2cc(OC)c(OC)cc2c(=O)[nH]1)C(=O)c1ccc(S(=O)(=O)N(C)C)cc1
Completion: 4.07

Prompt: # repeat for COc1cc(C)c(NC(=S)Nc2ccc(Cl)c(Cl)c2)cc1OC
Completion: 5.06

Prompt: # repeat for CN1CCN(CC(O)Cn2c3ccccc3c3ccccc32)CC1.O=C(O)C(=O)O (stereo not drawn)
Completion: 3.46

Prompt: # repeat for Cc1nc([N+](=O)[O-])cn1Cc1cccc([N+](=O)[O-])c1
Completion: -8.42

Prompt: # repeat for Oc1ccc(-c2[nH]ncc2-c2cccc3cccnc23)c(O)c1
Completion: 32.1

Prompt: # repeat for CC1CCN(CC(O)Cn2c3ccccc3c3ccccc32)CC1 (stereo not drawn)
Completion: -54

Prompt: # repeat for CS(=O)(=O)N(CC(=O)NCc1cccnc1)Cc1ccc(Cl)cc1
Completion: -30.1

Prompt: # repeat for OC(CNCc1ccco1)Cn1c2ccccc2c2ccccc21 (stereo not drawn)
Completion: -58.4

Prompt: # repeat for CN(C)S(=O)(=O)c1cccc(COC(=O)c2ccc(Cl)cc2O)c1
Completion: -7.36

Prompt: # repeat for OCCNCC(O)Cn1c2ccccc2c2ccccc21 (stereo not drawn)
Completion: 10.2

Prompt: # repeat for OC(CNCc1ccco1)Cn1c2ccc(Br)cc2c2cc(Br)ccc21 (stereo not drawn)
Completion: -0.0278

Prompt: # repeat for OC(CN1CCN(c2ccccc2)CC1)Cn1c2ccccc2c2ccccc21 (stereo not drawn)
Completion: 9.1

Prompt: # repeat for CCN1CCN(P2(=O)C=C(c3ccccc3)OC(c3ccccc3)=C2)CC1
Completion: -77.9

Prompt: # repeat for O=C(OCC(=O)c1ccc[nH]1)c1ccc(Cl)nc1
Completion: -5.61

Prompt: # repeat for Cc1cc2c(c(N)n1)c(=O)oc1ccccc12
Completion: 13.9

Prompt: # repeat for OC(CN1CCCCC1)Cn1c2ccccc2c2ccccc21 (stereo not drawn)
Completion: 3.16

Prompt: # repeat for O=C1NC(=O)C(Cc2ccccc2)(c2cccnc2)N1 (stereo not drawn)
Completion: 17.7
